protocolSummary: protease stability score; higher = more stable; yeast display proteolysis, trypsin and chymotrypsin;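 further: relative to predicted unfolded state with 0 unfolded-like and 1 meaning tenfold more protease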

entrySequence: DEERKFLKKMHEILDKSERTGNEEDIMRLVDPEVRLTVGDKELHGWSAMHEYFKRWIDKFPGVRVHFELNDITIVDGRILNIVHTKFEFDGREFQLTATIFAHKYDGRWTLTSMRYE
protease stability score: 1.09

entrySequence: RDLDEIARHVIELWKETYETGDERHLRELLDPNMRVEVNGVESHGREEMMKHMVKYAREIRITEIIDRDTDSQGNKLHIHGEIIVEQGDKKHRYTLDVTFFVVDGRIKHLHFRSK
protease stability score: 1.2

entrySequence: SEREDITHEFIQKTIKAIHTGDFILLLRLLDPDMQFDIGDKEFIGRERLREFMEEWRVRVKHYEIEHVRLQGDKLETHTHEHREIWIGDKVVHERFDRKIEITKVDGQWAIKRVEII
protease stability score: 0.284

entrySequence: SESQEVLEMAIRIWRHTVKTGDEREIAELMDPHVRIEVGDKEFIGRELVSHWFLRFSEHMRIHDIEIKRYHVVGNKAHIHTVVDGEVDGKRDYTEVELIVEKVDGRWLIRSMKIR
protease stability score: 2.49

entrySequence: DETDEYARNMMEIFVHLLATGNEEKMLEYMDPNTRHNFNGVVLHGRDVLREWWHRWLKEIRITRTRIDHVHTQGEYVHANTTVEGTIDGRKFELETRVHLHVVNGRIKESSIKLN
protease stability score: 1.51

entrySequence: SEDHHETQRALELLVTFLRTGDEHTLERLMDPDTRSIIDGVELHGREDMKEVLEWLVKQADHLESVHVRYLNVQGDKAQIHVELRGRFNGKHSIHEVHITTVKINGKWLITEVEFR
protease stability score: 1.93

entrySequence: SEEDDQAEEFARKMITDFLTGNWKKMMDLFDPNVRLRWHVDGRDKHHIGREVVSEILRRYVEEIRIHSISIESVENYDGVSIVHSHYEWEVNGQKRETHVLLEFVIINGRARSISIHIH
protease stability score: 1.11

entrySequence: DKREEIAREIWKMFDDAVFTGNEETLERMADPNVRFIIGDKHLIGMRDEIHWLREIRVHIELSRIHDIHLQGDKIHIDSHNDIEIIINGQERRHETKYMIDIRKVNGRWIIERVEIR
protease stability score: 0.818

entrySequence: SEDERDARTMTEEITHIIETGDEHRFQELADPNMRLEQGEYHRHGREQVVEFLREVLRELRLKHIHIKDIHVIDGRVIIDVWVHSQYGDKEFTVKVIWIVHKIDGRWIFHSVRIE
protease stability score: 1.35

entrySequence: DEEEEEDRHAAEITIKVLLTGDEKKLQELADPHTRFIIWIDGRELRYIGRRDLVRVWREIIRKLGIDHLSLDDMRVIDGKIHLHETMNVDGKNISRRIINNVINGVNKHIEVNLS
protease stability score: 1.17

entrySequence: HESEEYAHRVSKDFDRAMRTGDWLRLLELIDPNARLHVGEFHVHGMEDIEKWIRHFLHRVDVIHIRVRDMRVQGEKVDVDYEIEERQGDKRRHYESRTIILKIDGKWHIKEIHIH
protease stability score: 1.14

entrySequence: DTEEKELQKSLKELVTAVQTGDFKLLKELFDPHVRIDIGDKNVIGREEFSRFQKEEMEKWGVSRFTFDMEIHRYEIQGNKAYVDALNREEINGQEIHFNVDLFIHKINGKWLITEIRNK
protease stability score: 0.494

entrySequence: DDRDREARKLIQEITHALHTGDEELMEHMLDPSVRTNINGKDIHGMDLFYKWLIELVRRLGADHLNFEVKRVQLYGNKLNTDGHLFVHQGDFTILLNVRWYNLKVNGKWIHESIEIR
protease stability score: 1.45

entrySequence: DDHEKRLEEYMKHWFENLMTGNEERLHELADPNARFHLHFENHEVDLIGREDIIKWWREFLHRVKNIRHHLDHLEIQGEKSHLDMTLNIDGKEYRVRIIVVIVNGKIHKVIVDIR
protease stability score: 2.23

entrySequence: DEREELLRRWTEEFLDVFHTGDPKETMDMVDPHARIIVIINGRTIEDHGWEHVKILLEQIRVHDFHLTDVRVVNGKVRIDGRYDGYVNGQRVDHHVIIINVVVDGRTHTLLIEIR
protease stability score: 0.804

entrySequence: DEITRELKHIFEEVIRAILTGDWRRLHHLLDPRVRSKFEFENRHVDLHGMETVLHWMERWSQELRVEDFHLNDFRVIGDYIVLDGRVQNRQGDKKIDVRVELIVFVVNGKVTELRETSR
protease stability score: 1.17

entrySequence: DEDEERVKLASELYTHIMHTGDERLTKEFFDPRVRSDINGRELHGREIITEMVSRYKNMTLHSHREEVQGEWAFIDGRMEYGDKEWKIHIITLKVNGRWVVTEIEFH
protease stability score: 0.778

entrySequence: SEDEEMSKEASEWMLEIILTGDEDSLRKLLDPDYRLHVDGQEFHGRENVVKAFMEWLQRFGIKHIHLEDTRIEVQGDKVIVHERTHVDVNGKKTETELFLIALKFDGKWMTHSIEIRYE
protease stability score: 2.09

entrySequence: DEEEHYLREYLRIVDEELHTGDEKLLAKLLDPEVRVDFNGVVNIGWETVRRHVHHIWMIFRDSKIHDVKVQGDKMIADGRVDVEIIVNGRTHRLELDTNLIFRKVNGRWVMQEIKIG
protease stability score: 2.25

entrySequence: SEDEEDSKEAFRLVEEILITGNEEEIDDMADPHTRVQIGNKIWHGRELFLDWVREHLRRADVVRDVHLTHESAYDGKVELHMKVVIHYGDKTIDTEMVFVSRKIDGKWITHSITMV
protease stability score: 1.18

entrySequence: SEEEKHVTSMMELWIHYIITGDEEFFLKLADPHTRFEIGDYENHGRDAVKWHRDHLGLDNVHSRIHIKELRAVGDKVHSHTHLVIHIGDKTIRMDTKVHIVYINGRITSIIVEIS
protease stability score: 1.31

entrySequence: DEEEELLRRMLHLLYHFLKTGDEDTLSRLMDPNYLLIIGDKEHHGREEYRKVMKRADVLEIMHIHDVHFQGDKIHIDGHSRWRVGDKMHETRIEIIAVKFNGRWHFHSIIVR
protease stability score: 0.804
